Target Of Assay: Dual specificity protein kinase CLK4 (Homo sapiens)
Assay: Confirmation Assay for Inhibitors of CDC-like Kinase 4 (Kinase-Glo Assay)
Conditions Used: recombinant Clk4, Kinase-Glo ATP depletion luminescence; series mostly up to 47.7 µM
Inconclusive results are not listed. Activity calls are given as the source filed them. Calls come from the whole dose curve; as a rule, active = well fitted inhibition curve with a large enough effect; inconclusive = small, poorly fitted or top-dose-only effect; inactive = flat fitted curve, though single readings scatter.
Measurement Kind: Potency

Given c1cncc(CNc2ncnc3ccc(-c4ccoc4)cc23)c1 , report its Potency on Dual specificity protein kinase CLK4 (Homo sapiens).
631 nM (active)

Report value: Potency, system: Dual specificity protein kinase CLK4 (Homo sapiens), compound: CCCN(Cc1cccs1)c1ncnc2ccc(-c3ccc4c(c3)OCO4)cc12
116 nM (active)

Report its Potency with Dual specificity protein kinase CLK4 (Homo sapiens) as the test system: c1cncc(CNc2ncnc3ccc(-c4ccc5c(c4)OCCO5)cc23)c1
447 nM (active)

Write down measured Potency (Dual specificity protein kinase CLK4 (Homo sapiens)) for this compound. c1coc(-c2ccc3ncnc(NCc4cccs4)c3c2)c1
823 nM (active)

Please indicate recorded Potency of Cc1occc1-c1ccc2ncnc(NCc3ncc[nH]3)c2c1 measured with Dual specificity protein kinase CLK4 (Homo sapiens).
463 nM (active)

---

Target Of Assay: Dual specificity protein kinase CLK4 (Homo sapiens)
Assay: Confirmation Assay for Inhibitors of CDC-like Kinase 4 (Kinase-Glo Assay)
Conditions Used: recombinant Clk4, Kinase-Glo ATP depletion luminescence; series mostly up to 47.7 µM
Results filed as inconclusive are left out. Active and inactive are the calls of the source. Calls follow the shape of the dose curve; as a rule, active = well fitted inhibition curve with a large enough effect; inconclusive = small, poorly fitted or top-dose-only effect; inactive = flat fitted curve, though single readings scatter.
# Potency per record follows

Example entries begin here.
COc1cccc(-c2ccc3ncnc(NCc4cccc(F)c4)c3c2)c1 0.631 µM (active)
CCn1cnc(CCN(C)c2ncnc3ccc(-c4ccc5c(c4)OCO5)cc23)c1 1.3 µM (active)
CCOC(=O)c1ccc(-c2ccc3ncnc(NCc4ncc[nH]4)c3c2)o1 0.582 µM (active)
Cc1nc(CNc2ncnc3ccc(-c4ccc5c(c4)OCO5)cc23)cs1 0.0475 µM (active)
Fc1cccc(CNc2ncnc3ccc(-c4ccc5c(c4)OCO5)cc23)c1 0.1 µM (active)
Clc1ccccc1-c1ccc2ncnc(NCc3cccs3)c2c1 7.94 µM (active)
c1cncc(CNc2ncnc3ccc(-c4cccnc4)cc23)c1 7.94 µM (active)
Cc1cccc(-c2ccc3ncnc(NCc4cc(C)cs4)c3c2)c1 14.1 µM (active)

For c1nc(N2CCC(N3CCCC3)CC2)c2cc(-c3ccc4c(c3)OCO4)ccc2n1 , write its Potency.
4.63 µM (active)

In one line, give reported Potency of the entry Cc1cccc(CNc2ncnc3ccc(-c4cccc(Cl)c4)cc23)c1 .
14.1 µM (active)

Quickly give me recorded Potency for Cc1csc(CNc2ncnc3ccc(-c4ccoc4)cc23)c1
0.355 µM (active)

Supply Potency value. Item: Cc1nc(CN(C)c2ncnc3cc(-c4ccc5c(c4)OCO5)ccc23)cs1
5.33 µM (active)

Check the records and state Potency for c1nc(NCc2ccc3c(c2)OCO3)c2cc(-c3ccc4c(c3)OCCO4)ccc2n1
2.24 µM (active)

Name the recorded Potency of the item Cc1csc(CNc2ncnc3ccc(-c4cccc(Cl)c4)cc23)c1 in your answer.
7.94 µM (active)

Please report the measured Potency for Cc1nc(C)c(-c2ccc3ncnc(NCCc4cnc[nH]4)c3c2)s1
3.68 µM (active)

Give a short answer stating reported Potency for CN(Cc1ccco1)c1ncnc2ccc(-c3ccoc3)cc12 .
0.316 µM (active)

Let me know recorded Potency for Cc1csc(CNc2ncnc3cc(-c4ccc5c(c4)OCO5)ccc23)n1 , thanks.
8.44 µM (active)
